Target: hGLP-1R (Homo sapiens, UniProt P43220)
Assay: cell-based or functional assay
*1 amine or outer side, *2 acyl side, *3 side chain or, on linkers, in order; H or OH if unused. Where no end group is shown, it is not given here. Side-chain parts run from the residue outwards. [ ]: non-standard residue; d: D form. The star is where a group is joined. Decanoyl(10-(4-HOOC-PhO)) = O=C(O)c1ccc(OCCCCCCCCCC(=O)*)cc1; αMePhe(2-F) = C[C@](N)(Cc1ccccc1F)C(=O)O; γGlu = O=C(O)[C@H](CCC(=O)[*:2])N[*:1]; αMeY = C[C@](N)(Cc1ccc(O)cc1)C(=O)O; αMeL = CC(C)C[C@](C)(N)C(=O)O; Orn = NCCC[C@H](N)C(=O)O; AEEA = NCCOCCOCC(=O)O; Aib = CC(C)(N)C(=O)O
recorded-metric: cAMP Emax
Param answer (str): number followed by unit.

Would you mind telling me what cAMP Emax value was observed for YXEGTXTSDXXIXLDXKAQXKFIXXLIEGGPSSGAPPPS (Y-Aib-EGT-αMeF(2F)-TSD-4Pal-Aib-I-αMeL-LD-Orn-K((2-[2-(2-Amino-ethoxy)-ethoxy]-acetyl)3-(γ-Glu)-CO-(CH2)10-CH3)AQ-Aib-K((2-[2-(2-Amino-ethoxy)-ethoxy]-acetyl)3-(γ-Glu)-CO-(CH2)10-CH3)FI-(D-Glu)-αMeY-LIEGGPSSGAPPPS-NH2) [Example 422] ?
106%

Would you mind telling me what cAMP Emax value was observed for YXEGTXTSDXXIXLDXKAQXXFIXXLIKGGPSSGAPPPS (Y-Aib-EGT-αMeF(2F)-TSD-4Pal-Aib-I-αMeL-LD-Orn-K((2-[2-(2-Amino-ethoxy)-ethoxy]-acetyl)3-(γ-Glu)-CO-(CH2)10-CH3)AQ-Aib-Orn-FI-(D-Glu)-αMeY-LIK((2-[2-(2-Amino-ethoxy)-ethoxy]-acetyl)3-(γ-Glu)-CO-(CH2)10-CH3)GGPSSGAPPPS-NH2) [Example 434] ?
104%

Would you mind telling me what cAMP Emax value was observed for Y[Aib]EGT[αMePhe(2-F)]TSDV[Aib]I[αMeL]LD[Orn]IAQ[Aib]K([AEEA-AEEA-γGlu-Decanoyl(10-(4-HOOC-PhO))])FI[dE][αMeY]LIK([AEEA-AEEA-γGlu-Decanoyl(10-(4-HOOC-PhO))])GGPSSGAPPPS-NH2 [Example 330] ?
103%
